All values here come from ChEMBL document CHEMBL5331133.

Assay procedure: in vitro
Measurement conditions: human, liver microsomes, CLH
Description: Microsomal stability in human liver microsomes assessed as intrinsic clearance
Quantity kind: microsomal CLint (µL/min/mg)

C#Cc1cc2c(c(F)c1-c1c(O)cccc1Cl)OC[C@H]1CN(C(=O)C=C)CCN1C2 :: 16

A: C=CC(=O)N1CCN2Cc3cc(OC)c(-c4c(O)cccc4Cl)c(F)c3OC[C@H]2C1
B: C=CC(=O)N1CCN2Cc3cc(C4CC4)c(-c4c(O)cccc4Cl)c(F)c3OC[C@H]2C1
Query: Between A and B , which one has the lower reported microsomal CLint value? Pick one; state its label.
Response: A

###

Entries with their measured pIC50, system GTPase KRas (Homo sapiens, UniProt P01116, G12C):
pIC50: −log10 of the molar value.
Quantity kind: pIC50

C=CC(=O)N1CCN2C(=O)c3cc(OCCOC)c(-c4c(O)cccc4Cl)c(F)c3OC[C@H]2C1 :: 7.00

P: C=CC(=O)N1CCN2Cc3cc(OC(F)F)c(-c4c(O)cccc4Cl)c(F)c3OC[C@H]2C1
Q: C=CC(=O)N1CCN2Cc3cc(F)c(-c4c(C)cccc4O)c(F)c3OC[C@H]2C1
Query: Between P and Q , which one has the lower reported pIC50 value? Pick one; state its label.
Response: P

I: C=CC(=O)N1CCN2Cc3cc(F)c(-c4c(O)cccc4F)c(Cl)c3OC[C@H]2C1
II: C=CC(=O)N1CCN2Cc3cc(OC)c(-c4c(O)cccc4Cl)c(F)c3OC[C@H]2C1
Query: Between I and II , which one has the lower reported pIC50 value? Pick one; state its label.
Response: I
(I: 6.83, II: 7.13)

###

Assay procedure: […] stability in rat hepatocyte assessed as intrinsic clearance measured per million of cells
Type: ADME, cell-based
Measurement conditions: hepatocytes
Quantity kind: CLH (µL/min)

In the examples that follow, each entry is paired with its recorded CLH.
C=CC(=O)N1CCN2Cc3cc(OC(F)F)c(-c4c(O)cccc4Cl)c(F)c3OC[C@H]2C1 :: 143
C=CC(=O)N1C[C@H]2CCOc3c(Cl)c(-c4c(O)cccc4F)c(F)c4ncnc(c34)N2C[C@H]1C :: 41
C=CC(=O)N1CCN2Cc3cc(C(F)F)c(-c4c(O)cccc4Cl)c(F)c3OC[C@H]2C1 :: 99
C=CC(=O)N1CCN2c3ncnc4cc(-c5c(C)ccc6[nH]ncc56)c(Cl)c(c34)OC[C@@H]2C1 :: 109

I: C=CC(=O)N1CCN2Cc3cc(Cl)c(-c4c(O)cccc4Cl)c(F)c3OC[C@H]2C1
II: C=CC(=O)N1CCN2Cc3ccc(-c4c(C)ccc5[nH]ncc45)c(Cl)c3OC[C@@H]2C1
Query: Which value of CLH is greater, the one for I or the one for II ? Pick one; state its label.
Response: II
(II: 130 µL/min, I: 44 µL/min)

P: C=CC(=O)N1CCN2Cc3ccc(-c4c(O)cccc4F)c(Cl)c3OC[C@H]2C1
Q: C=CC(=O)N1CCN2Cc3ccc(-c4c(C)ccc5[nH]ncc45)c(Cl)c3OCCC2C1 (stereo in doubt; 20)
Query: Between P and Q , which one has the lower reported CLH value? Pick one; state its label.
Response: P

###

Assay procedure: Unbound brain-to-plasma concentration ratio in Wistar Han rat at 2.3 microM/Kg, iv and measured after 4 hrs
Type: ADME, organism-based
Measurement conditions: read-out: K(p,uu,brain)
Quantity kind: Kp uu at 4 h

In the examples that follow, each entry is paired with its recorded Kp uu at 4 h.
C=CC(=O)N1CCN2Cc3cc(F)c(-c4c(O)cccc4Cl)c(F)c3OC[C@H]2C1.O :: 0.11
C#Cc1cc2c(c(F)c1-c1c(O)cccc1Cl)OC[C@H]1CN(C(=O)C=C)CCN1C2 :: 0.05
C=CC(=O)N1CCN2Cc3cc(C#CC)c(-c4c(O)cccc4Cl)c(F)c3OC[C@H]2C1 :: 0.11
C=CC(=O)N1C[C@H]2CCOc3c(Cl)c(-c4c(O)cccc4F)c(F)c4ncnc(c34)N2C[C@H]1C :: 0.06
C=C(F)C(=O)N1CCN(c2nc(OC[C@@H]3CCCN3C)nc3c2CCN(c2cccc4cccc(Cl)c24)C3)C[C@@H]1CC#N [ADAGRASIB] :: 0.01

I: C=CC(=O)N1CCN2Cc3ccc(-c4c(C)ccc5[nH]ncc45)c(Cl)c3OC[C@@H]2C1
II: C=CC(=O)N1CCN2Cc3cc(F)c(-c4c(C)cccc4O)c(F)c3OC[C@H]2C1
Query: Which value of Kp uu at 4 h is greater, the one for I or the one for II ? Pick one; state its label.
Response: I
(I: 0.41, II: 0.15)
